Assay: modulators of glucocorticoid suppression of NF-kB, cell-based, luciferase, IL-1B stimulus, dexamethasone (AID 624486);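 also: 100% = mean signal of vehicle control wells on the plate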
Settings: NF-kB luciferase reporter, IL-1B + dexamethasone, luminescence; actives lie on both sides, concentration not given here
Simple rule here: percent of negative control (+Dex) less than 90% is 1, otherwise -1.

Example cases with answers are listed next.
COMPOUND	LABEL
Cc1cc(O)cc(C)c1/C=C/c1cncc(C(N)=O)c1	-1
COC(=O)Nc1nc2ccc(S(=O)(=O)c3ccc(NC(=O)Nc4cc(C(F)(F)F)ccc4F)cc3)cc2[nH]1	1
COc1cc(C)c(NC(=O)CN(C)C)cc1Nc1nc(Nc2cccc(F)c2C(N)=O)c2cc[nH]c2n1	-1
NC(=O)c1sc(-n2cnc3ccc(C(F)(F)F)cc32)cc1OCc1ccccc1Br	-1
CS(=O)(=O)CCNCc1ccc(-c2ccc3ncnc(Nc4ccc(OCc5ccccc5)c(Cl)c4)c3c2)o1	1
CC(c1ccccc1)C(C(=O)Nc1ccc(I)cc1F)N1C(=O)NC(c2ccc(OCC(O)CO)cc2)C1=O (centres undefined)	1

Would you kindly look at the next entry?
Task: Bench note: check whether Nc1c(C(=O)c2ccc(-c3cccnc3)cc2)cnn1-c1ccc(F)cc1 shows percent of negative control (+Dex) below 90%
Output: -1
